Biological target: GABA-A receptor; alpha-3/beta-3/gamma-2 (Homo sapiens, UniProt P18507+P28472+P34903)
Sequence (P18507 whole entry): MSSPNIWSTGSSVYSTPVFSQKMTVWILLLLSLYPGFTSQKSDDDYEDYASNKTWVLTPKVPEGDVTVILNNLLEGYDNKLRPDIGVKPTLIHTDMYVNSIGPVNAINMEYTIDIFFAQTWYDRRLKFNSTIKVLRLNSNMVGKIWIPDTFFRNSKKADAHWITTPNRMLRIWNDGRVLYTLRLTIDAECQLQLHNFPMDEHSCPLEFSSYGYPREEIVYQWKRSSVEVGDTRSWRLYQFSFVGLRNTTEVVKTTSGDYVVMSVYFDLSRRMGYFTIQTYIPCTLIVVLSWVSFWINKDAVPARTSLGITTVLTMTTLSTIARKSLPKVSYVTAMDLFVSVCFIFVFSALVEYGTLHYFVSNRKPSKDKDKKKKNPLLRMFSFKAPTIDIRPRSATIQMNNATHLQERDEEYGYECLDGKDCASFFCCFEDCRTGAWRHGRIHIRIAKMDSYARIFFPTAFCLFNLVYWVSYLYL
Sequence (P28472 whole entry): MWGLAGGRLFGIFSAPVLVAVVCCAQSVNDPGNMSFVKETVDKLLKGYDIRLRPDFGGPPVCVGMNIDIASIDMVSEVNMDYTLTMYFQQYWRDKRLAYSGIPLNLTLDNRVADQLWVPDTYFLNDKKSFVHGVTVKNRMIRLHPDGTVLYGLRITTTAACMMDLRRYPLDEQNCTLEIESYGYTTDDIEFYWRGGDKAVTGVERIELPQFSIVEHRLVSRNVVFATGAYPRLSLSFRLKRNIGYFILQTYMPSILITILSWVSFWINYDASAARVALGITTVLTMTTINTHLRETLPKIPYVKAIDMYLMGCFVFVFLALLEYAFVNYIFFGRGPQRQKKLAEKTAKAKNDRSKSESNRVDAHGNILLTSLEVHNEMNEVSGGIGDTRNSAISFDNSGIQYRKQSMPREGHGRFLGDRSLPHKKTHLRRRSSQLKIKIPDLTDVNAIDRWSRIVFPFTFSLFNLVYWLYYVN
Sequence (P34903 whole entry): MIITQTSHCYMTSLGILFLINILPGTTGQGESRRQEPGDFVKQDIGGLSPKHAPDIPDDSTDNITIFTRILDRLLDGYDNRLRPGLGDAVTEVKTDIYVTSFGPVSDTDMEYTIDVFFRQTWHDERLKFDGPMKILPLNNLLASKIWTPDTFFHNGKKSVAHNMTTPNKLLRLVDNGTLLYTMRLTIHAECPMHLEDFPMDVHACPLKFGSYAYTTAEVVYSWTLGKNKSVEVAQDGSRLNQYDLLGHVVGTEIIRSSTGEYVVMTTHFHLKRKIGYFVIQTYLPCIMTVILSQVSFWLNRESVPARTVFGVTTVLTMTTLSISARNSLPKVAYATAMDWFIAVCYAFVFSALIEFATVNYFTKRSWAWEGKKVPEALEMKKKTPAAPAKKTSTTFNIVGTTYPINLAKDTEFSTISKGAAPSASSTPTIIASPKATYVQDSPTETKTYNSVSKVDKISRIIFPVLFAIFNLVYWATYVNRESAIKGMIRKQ
Experiment: Binding affinity against alpha-3-beta-3-gamma-2 GABAA/BzR receptor subtype.
Give Ki for every item shown.
One number for each entry, in nM.

item smiles	measured target	Ki (nM)
CCCCC(=O)c1ncn2c1CN(C)C(=O)c1cc(Cl)ccc1-2	GABA-A receptor; alpha-3/beta-3/gamma-2 (Homo sapiens, UniProt P18507+P28472+P34903)	2740
CCOC(=O)c1ncn2c1[C@@H]1CCCN1C(=O)c1cc(C#C[Si](C)(C)C)ccc1-2	GABA-A receptor; alpha-3/beta-3/gamma-2 (Homo sapiens, UniProt P18507+P28472+P34903)	79
CCOC(=O)c1ncn2c1CN(C)C(=O)c1cc(C#C[Si](C)(C)C)ccc1-2	GABA-A receptor; alpha-3/beta-3/gamma-2 (Homo sapiens, UniProt P18507+P28472+P34903)	198
C#Cc1ccc2c(c1)C(=O)N1CCC[C@H]1c1c(-c3nc(C)no3)ncn1-2	GABA-A receptor; alpha-3/beta-3/gamma-2 (Homo sapiens, UniProt P18507+P28472+P34903)	91
CCOC(=O)c1ncn2c1CN(C)C(=O)c1cc(C#N)ccc1-2	GABA-A receptor; alpha-3/beta-3/gamma-2 (Homo sapiens, UniProt P18507+P28472+P34903)	19

Parameter requested: Ki. Apply to each item below.
1. CC(C)N(Cc1ncn2c1CN(C)C(=O)c1cc(Cl)ccc1-2)C(C)C
2. CC#Cc1ccc2c(c1)C(=O)N(C)Cc1c(C(=O)OCC)ncn1-2
3. CCOC(=O)c1ncn2c1[C@@H]1CCCN1C(=O)c1cc(Br)ccc1-2

Response line:
6270
16.5
15
